target: E. coli DNA gyrase (Escherichia coli, UniProt P0AES6); construct: purchased Inspiralis; assay: biochemical; conditions: E. coli DNA gyrase; read-out: IC50
pIC50: −log10 of the molar value.
// reported pIC50 for each item listed
Experimental endpoint: pIC50

compound="Cc1[nH]c(C(=O)Nc2ccc(-c3noc(=O)[nH]3)cc2N2CCCC(CN)C2)c(Cl)c1Cl.Cl (stereo not drawn) [Example 3]" experimental_endpoint=pIC50 assay_result=8.50
compound="Cc1[nH]c(C(=O)Nc2ccc(C(=O)NCC(=O)O)cc2N2CCNCC2)c(Cl)c1Cl.Cl [Example 36]" experimental_endpoint=pIC50 assay_result=7.39
compound="Cl.O=C(O)CNC(=O)c1ccc(NC(=O)c2cc(Br)c(Br)[nH]2)c(N2CCNCC2)c1 [Example 39]" experimental_endpoint=pIC50 assay_result=6.08
